Measured Ki on CRTH2 (Homo sapiens) follows.
measuredQuantity: Ki (nM)

# compound, measuredQuantity, valueComparator, resultValue
measured = [
    ("CCCCC[C@H](O)/C=C/[C@@H]1[C@@H](C/C=C\\CCCC(=O)O)[C@@H](O)C[C@H]1O [PGF2α]", "Ki", "=", 2000),
    ("CCCCC[C@H](O)/C=C/[C@@H]1[C@@H](C/C=C\\CCCC(=O)O)[C@H]2CO[C@@H]1C2 [U46619]", "Ki", ">", 30000),
    ("CCCCC[C@H](O)/C=C/C=C\\C=C\\C=C\\[C@@H](O)[C@@H](O)CCCC(=O)O [LXA4]", "Ki", ">", 30000),
    ("CCCCC/C=C/C=C1/C(=O)C=C[C@@H]1C/C=C\\CCCC(=O)O [15-deoxy-Δ^12,14-PGJ2]", "Ki", "=", 2300),
    ("CCCCC[C@H](O)/C=C/[C@H]1C(=O)C[C@H](O)[C@@H]1C/C=C\\CCCC(=O)OC [PGD2 methyl ester]", "Ki", "=", 460),
    ("O=C(O)CCCCCC[C@H]1C(=O)NC(=O)N1CC[C@@H](O)C1CCCCC1 [BW245C]", "Ki", ">", 100000),
    ("CCCCC[C@H](O)/C=C/[C@H]1C(=O)C[C@H](O)[C@@H]1C/C=C\\CCCC(=O)O [PGD2]", "Ki", "=", 61),
    ("CCCCC/C=C\\C[C@@H](O)/C=C/C=C/C=C\\[C@@H](O)CCCC(=O)O [LTB4]", "Ki", ">", 30000),
]

====

Sequence of the target: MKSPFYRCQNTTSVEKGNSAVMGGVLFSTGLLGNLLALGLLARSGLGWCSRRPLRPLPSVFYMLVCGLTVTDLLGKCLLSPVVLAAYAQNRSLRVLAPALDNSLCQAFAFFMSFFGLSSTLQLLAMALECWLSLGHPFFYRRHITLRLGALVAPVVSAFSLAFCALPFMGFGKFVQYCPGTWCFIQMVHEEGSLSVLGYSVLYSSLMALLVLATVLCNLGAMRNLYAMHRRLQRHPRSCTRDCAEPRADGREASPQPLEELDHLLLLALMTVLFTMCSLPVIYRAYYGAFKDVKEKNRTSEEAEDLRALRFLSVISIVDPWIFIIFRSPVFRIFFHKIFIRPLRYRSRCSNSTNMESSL
measuredQuantity: Ki (µM)

# molecule, endpointUnit, valueComparator, resultValue
data = [
    ("CCCCC[C@H](O)/C=C/[C@H]1C(=O)C[C@H](O)[C@@H]1C/C=C\\CCCC(=O)OC [PGD2 methyl ester]", "µM", "=", 0.27),
    ("CCCCC[C@H](O)C/C=C1/C(=O)C=C[C@@H]1C/C=C\\CCCC(=O)O [Δ^12-PGJ2]", "µM", "=", 5.2),
    ("CCCCC[C@H](O)/C=C/[C@H]1C=CC(=O)[C@@H]1C/C=C\\CCCC(=O)O [PGA2]", "µM", ">", 30),
    ("CCCCCC(=O)CC[C@H]1C(=O)C[C@H](O)[C@@H]1C/C=C\\CCCC(=O)O [DK-PGD2, 13,14-dihydro-15-keto-PGD2]", "µM", ">", 30),
    ("CCCCC[C@H](O)/C=C/[C@H]1C(=O)C[C@H](O)[C@@H]1C/C=C\\CCCC(=O)O [PGD2]", "µM", "=", 0.045),
    ("CCCCC/C=C/C=C1/C(=O)C=C[C@@H]1C/C=C\\CCCC(=O)O [15-deoxy-Δ^12,14-PGJ2]", "µM", ">", 30),
    ("CCCCC[C@H](O)/C=C/[C@@H]1[C@@H](C/C=C\\CCCC(=O)O)[C@H]2CO[C@@H]1C2 [U46619]", "µM", ">", 30),
    ("CCCCC[C@H](O)/C=C/C=C\\C=C\\C=C\\[C@@H](O)[C@@H](O)CCCC(=O)O [LXA4]", "µM", ">", 30),
    ("CCCCC[C@H](O)/C=C/[C@H]1[C@H](O)CC(=O)[C@@H]1C/C=C\\CCCC(=O)O [PGE2]", "µM", "=", 2.3),
    ("CCCCC[C@H](O)/C=C/[C@H]1C(=O)C=C[C@@H]1C/C=C\\CCCC(=O)O [PGJ2]", "µM", "=", 0.064),
    ("O=C(O)CCCCCC[C@H]1C(=O)NC(=O)N1CC[C@@H](O)C1CCCCC1 [BW245C]", "µM", "=", 0.05),
    ("CCCCC[C@H](O)/C=C/[C@@H]1[C@@H](C/C=C\\CCCC(=O)O)[C@@H](O)C[C@H]1O [PGF2α]", "µM", ">", 30),
    ("CCCCC/C=C\\C[C@@H](O)/C=C/C=C/C=C\\[C@@H](O)CCCC(=O)O [LTB4]", "µM", ">", 30),
    ("CCCCC[C@H](O)/C=C/[C@@H]1[C@@H](C/C=C\\CCCC(=O)O)[C@@H](O)C[C@@H]1O [11β-PGF2α]", "µM", "=", 1.2),
]

====

target: CRTH2 (Homo sapiens, UniProt Q9Y5Y4)
Sequence (Q9Y5Y4 whole entry): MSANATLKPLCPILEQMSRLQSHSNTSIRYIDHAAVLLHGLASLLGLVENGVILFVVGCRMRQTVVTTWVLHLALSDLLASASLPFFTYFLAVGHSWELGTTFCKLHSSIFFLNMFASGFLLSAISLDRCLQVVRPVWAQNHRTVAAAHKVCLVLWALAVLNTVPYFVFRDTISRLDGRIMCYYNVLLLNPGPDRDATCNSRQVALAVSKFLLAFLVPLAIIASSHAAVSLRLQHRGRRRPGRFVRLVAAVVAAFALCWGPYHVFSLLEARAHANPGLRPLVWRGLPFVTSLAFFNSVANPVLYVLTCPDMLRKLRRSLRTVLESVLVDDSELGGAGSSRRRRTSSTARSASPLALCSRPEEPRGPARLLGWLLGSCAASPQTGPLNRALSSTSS
Cut-off 3 µM on Ki: below means True, at or above means False.

# molecule, classification
records = [
    ("CCCCC[C@H](O)/C=C/[C@H]1C=CC(=O)[C@@H]1C/C=C\\CCCC(=O)O [PGA2]", "False"),
    ("CCCCC[C@H](O)C/C=C1/C(=O)C=C[C@@H]1C/C=C\\CCCC(=O)O [Δ^12-PGJ2]", "False"),
    ("CCCCC[C@H](O)/C=C/[C@H]1[C@H](O)CC(=O)[C@@H]1C/C=C\\CCCC(=O)O [PGE2]", "False"),
    ("CCCCC[C@H](O)/C=C/[C@@H]1[C@@H](C/C=C\\CCCC(=O)O)[C@@H](O)C[C@@H]1O [11β-PGF2α]", "False"),
    ("CCCCCC(=O)CC[C@H]1C(=O)C[C@H](O)[C@@H]1C/C=C\\CCCC(=O)O [DK-PGD2, 13,14-dihydro-15-keto-PGD2]", "True"),
    ("CCCCC[C@H](O)/C=C/[C@H]1C(=O)C=C[C@@H]1C/C=C\\CCCC(=O)O [PGJ2]", "True"),
]

====

target: CRTH2 (Homo sapiens); test: 3H-PGD2 saturation binding; type: cell-based
pKd: −log10 of the molar value.
measuredQuantity: pKd

# compoundStructure, measuredQuantity, resultValue
records = [
    ("CCCCC[C@H](O)/C=C/[C@H]1C(=O)C[C@H](O)[C@@H]1C/C=C\\CCCC(=O)O", "pKd", 7.50),
]
